# target-desc: T1, cMetECDHis (human, UniProt P08581 25-932, limits assumed, biotinylated in the cross-block ELISA of Example 17)
# T1 construct: Expressed in HEK-293F cells; also called soluble cMetECDHis; biotinylated cMetECDHis
# test-description: cross-block ELISA; competitor 064
value-type: residual binding, % of no competitor
Number first, unit second: that is the form wanted.

Quick check: residual binding, % of no competitor of IgG1-1016-058 (antibody, V domains shown, also called IgG1-058; TH1016-058) VH: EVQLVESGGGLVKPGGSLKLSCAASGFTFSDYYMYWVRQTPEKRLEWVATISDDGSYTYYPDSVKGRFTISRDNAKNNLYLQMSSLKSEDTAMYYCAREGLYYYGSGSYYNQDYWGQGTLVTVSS VL: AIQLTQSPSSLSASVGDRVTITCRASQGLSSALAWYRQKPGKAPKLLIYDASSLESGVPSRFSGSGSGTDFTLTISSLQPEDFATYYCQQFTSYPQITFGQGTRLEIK ?
109%

Item: anti-c-Met HuMab 181 (IgG1) (antibody, V domains shown, also called TH1016-181; PC1016-181) VH: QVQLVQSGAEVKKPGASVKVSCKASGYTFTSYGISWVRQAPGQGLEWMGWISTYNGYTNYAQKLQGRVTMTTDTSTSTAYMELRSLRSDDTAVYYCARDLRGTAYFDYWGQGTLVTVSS VL: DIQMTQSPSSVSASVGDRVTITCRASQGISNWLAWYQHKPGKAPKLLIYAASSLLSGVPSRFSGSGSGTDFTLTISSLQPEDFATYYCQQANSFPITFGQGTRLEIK
2.1%

Item: IgG1-024 (antibody, V domains shown, also called TH1016-024; PC1016-024) VH: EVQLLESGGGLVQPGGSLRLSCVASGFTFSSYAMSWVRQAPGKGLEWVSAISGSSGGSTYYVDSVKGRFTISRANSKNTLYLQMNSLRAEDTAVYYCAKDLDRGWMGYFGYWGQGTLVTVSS VL: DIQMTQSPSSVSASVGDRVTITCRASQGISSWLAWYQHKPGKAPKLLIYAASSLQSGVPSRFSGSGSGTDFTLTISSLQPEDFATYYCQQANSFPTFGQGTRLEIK
2.3%

The values you see were collected from patent US20150329642A1.
